Attribution: ChEMBL document CHEMBL3525937

Each entry below carries its reported IC50.
Test: Cytotoxicity against human Patu-02 cells by crystal violet staining
Type: functional, cell-based

# Compound, IC50, µM
records = [
    ("Sc1ncnc2nc[nH]c12 [MERCAPTOPURINE ANHYDROUS]", 9.69),
    ("Nc1ccn([C@@H]2O[C@H](CO)[C@@H](O)C2(F)F)c(=O)n1", 0.0034),
    ("Nc1nc2[nH]cnc2c(=S)[nH]1", 2.26),
    ("O=c1[nH]cc(F)c(=O)[nH]1", 3.95),
]

* * *

Test system: MRP4
Experiment: Induction of MRP4 expression in human Patu-T cells after 6 months by RT-PCR analysis relative to control
Assay type: cell-based, PaTu 8988t
Conditions: read-out: FC
Measurement label: fold induction at 4383 h

# Smiles str, Measurement label, Result
records = [
    ("O=c1[nH]cc(F)c(=O)[nH]1", "fold induction at 4383 h", 2.5),
]
